- System: male gypsy moth antenna response to mixed pheromone/modulator plume
- protocol: EAG peak broadening (PB) (Example 11)
- Set-up: species or system Lymantria dispar
- experimental_parameters: mixed plume, 100 μg compound and 100 ng pheromone (puff v vs puff ii)
Exam item: assign Satisfied to entries whose activity (% peak broadening) is below 80% and Not satisfied to entries at or above 80%. Note that a value of exactly 80% receives Not satisfied.

Answer whether the compound `C=CCOc1cccc(OCC)c1` has activity (% peak broadening) strictly less than 80%
Satisfied

What do we get for `CCCOc1ccc(OCC)cc1` ?
Not satisfied

What do we get for `CCCOc1ccc(OC)cc1` ?
Not satisfied

What do we get for `CCOc1ccccc1OCC` ?
Not satisfied

What do we get for `COc1ccccc1OC` ?
Not satisfied

What do we get for `CCOc1ccc(OCC)cc1` ?
Satisfied

What do we get for `COc1ccc(OC)cc1` ?
Satisfied

What do we get for `CCCCOc1ccccc1OCCCC` ?
Not satisfied

* * *

- Test system: male gypsy moth antenna response to pheromone (+)-1
- protocol: EAG short-term (STI) and long-term (LTI) inhibition of pheromone signaling (Example 5)
- Set-up: species or system Lymantria dispar
- experimental_parameters: Lymantria dispar, pure (+)-1 100 ng plume following mixed plume with 100 μg compound; mean ± S.E.; read-out: Activity (%): long-term inhibition (LTI)
metric_name: inhibition at 100 µg, 0.1 mg (%)
Report only the number, with the unit % understood.

Can you look up the measured inhibition at 100 µg, 0.1 mg of `CC(C)CCOc1ccccc1OCCC(C)C` for me?
0

What do we get for `CCCCOc1ccc(OCCCC)cc1` ?
7

What do we get for `CC(C)CCOc1ccc(OCCC(C)C)cc1` ?
7

What do we get for `C=CCOc1cccc(OC)c1` ?
14

What do we get for `C=CCOc1ccccc1OCC=C` ?
17

What do we get for `CCOc1ccc(OCC)cc1` ?
17

What do we get for `CCOc1ccccc1OCC` ?
15

What do we get for `C=CCOc1ccc(OCC=C)cc1` ?
4

What do we get for `CC(C)CCOc1ccc(O)cc1` ?
2

What do we get for `CC(C)CCOc1cccc(OCCC(C)C)c1` ?
9

What do we get for `CCCCOc1cccc(OCCCC)c1` ?
8

What do we get for `CCCOc1cccc(OCCC)c1` ?
45

What do we get for `CC(C)CCOc1ccccc1O` ?
6

What do we get for `CCCOc1cccc(O)c1` ?
8

What do we get for `COc1cccc(OC)c1` ?
1

What do we get for `CCCOc1ccc(O)cc1` ?
-8

What do we get for `CCOc1cccc(O)c1` ?
-3

What do we get for `COc1cccc(O)c1` ?
4

What do we get for `C=CCOc1cccc(OCCC)c1` ?
48

What do we get for `CC(C)CCOc1cccc(O)c1` ?
4

* * *

Assignment: determine reported PBP1 (% bound) for the given compounds.
- Tested on: L. dispar PBP 1
- protocol: Pheromone-binding protein (PBP) ligand binding assay, PBP1
- Design: species or system Lymantria dispar
- experimental_parameters: member tested within library 3c{1, 1-5}
Quick note: number first, unit second.

Can you look up the measured PBP1 (% bound) of `CCCOc1ccc(OC)cc1` for me?
7 ± 0.5%

What do we get for `COc1ccc(OC)cc1` ?
24 ± 0.3%

What do we get for `CCOc1ccc(OC)cc1` ?
15 ± 0.4%

What do we get for `COc1ccc(OCCC(C)C)cc1` ?
1 ± 0.7%
